# systemName: Tyrosine-protein kinase Fgr (Homo sapiens) (UniProt P09769);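 note: reported values are mean percent inhibition of FGR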
# Sequence (P09769 2-529 limits assumed): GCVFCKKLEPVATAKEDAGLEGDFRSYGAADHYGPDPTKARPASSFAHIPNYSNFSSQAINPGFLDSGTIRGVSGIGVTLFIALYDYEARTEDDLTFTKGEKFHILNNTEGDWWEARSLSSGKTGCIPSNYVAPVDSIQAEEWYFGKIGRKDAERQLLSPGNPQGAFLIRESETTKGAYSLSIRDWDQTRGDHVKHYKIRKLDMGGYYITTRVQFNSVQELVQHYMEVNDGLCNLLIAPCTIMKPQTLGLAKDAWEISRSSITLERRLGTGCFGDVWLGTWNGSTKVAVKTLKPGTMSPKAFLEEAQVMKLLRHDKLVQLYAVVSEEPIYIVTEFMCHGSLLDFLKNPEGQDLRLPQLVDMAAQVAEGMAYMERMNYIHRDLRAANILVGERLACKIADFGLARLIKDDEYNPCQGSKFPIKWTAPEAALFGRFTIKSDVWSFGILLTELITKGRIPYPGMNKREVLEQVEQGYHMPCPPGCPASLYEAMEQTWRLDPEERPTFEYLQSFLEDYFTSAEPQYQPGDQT
# experimentalContext: at 0.1 µM
experimentalEndpoint: inhibition
Could you give the number and then its unit, please?

Example entries and their recorded answers appear below.
>>> recordedvalue("CC1=C(C(=O)Nc2ccc3[nH]ncc3c2)C(c2ccc(Cl)c(Cl)c2)CC(=O)N1 (stereo unspecified)")
"1.97%"
>>> recordedvalue("Cc1nnc(-c2ccc(C)c(-c3ccc(C(=O)Nc4cccc(C#N)c4)cc3)c2)o1")
"4.67%"
>>> recordedvalue("NS(=O)(=O)c1cccc(-c2ccc3c(NC(=O)C4CC4)n[nH]c3c2)c1")
"-1.55%"

For reference, reported inhibition for `CN1CCC(C(=O)Nc2n[nH]c3nnc(-c4ccccc4)cc23)CC1` stands at 5.18%

For reference, reported inhibition for `CCn1c(-c2nonc2N)nc2cnc(Oc3cccc(NC(=O)c4ccc(OCCN5CCOCC5)cc4)c3)cc21` stands at 4.08%

For reference, reported inhibition for `COc1cc(C)c(NC(=O)CN(C)C)cc1Nc1nc(Nc2cccc(F)c2C(N)=O)c2cc[nH]c2n1` stands at 0.83%

For reference, reported inhibition for `Nc1nc(-c2ccccn2)c(-c2ccc3ncccc3n2)s1` stands at 1.09%

For reference, reported inhibition for `CC(C)=Cc1cccc2c1/C(=N/Nc1ccc(S(N)(=O)=O)cc1)C(=O)N2` stands at 5.76%

For reference, reported inhibition for CC1=C(C(=O)Nc2ccc3[nH]ncc3c2)C(c2ccc3ccccc3c2)CC(=O)N1 (stereo unspecified) stands at 3.21%

For reference, reported inhibition for `CS(=O)(=O)CCNCc1nc(-c2ccc3ncnc(Nc4ccc(F)c(Cl)c4)c3c2)cs1` stands at 5.78%

For reference, reported inhibition for CC1=C(C(=O)Nc2ccc3[nH]ncc3c2)C(c2ccc(F)cc2)NC(=O)N1 (stereo unspecified) stands at 0.15%
